Origin of the recorded values: paper PMC12057336

ASSAY EXPLANATION: Tissue distribution after i.g. or i.v. linezolid in control, CCl4-induced and 5/6 Nx rats
Assay type: in vivo, rat
MEASUREMENT SETUP: rat, heart, iv, 25 mg/kg, i.v. 25 mg/kg linezolid; 1 h; CCl4-induced rats; read-out: Tissue/plasma concentration ratio, Heart
QUANTITY: Kp at 1 h

- CC(=O)NC[C@H]1CN(c2ccc(N3CCOCC3)c(F)c2)C(=O)O1: 0.67

---

ASSAY EXPLANATION: Tissue distribution after i.g. or i.v. linezolid in control, CCl4-induced and 5/6 Nx rats
Format: in vivo, rat
MEASUREMENT SETUP: rat, liver, oral, 63 mg/kg, i.g. 63 mg/kg linezolid; 0.5 h; 5/6 Nx rats; read-out: Tissue/plasma concentration ratio, Liver
QUANTITY: Kp at 0.5 h

- CC(=O)NC[C@H]1CN(c2ccc(N3CCOCC3)c(F)c2)C(=O)O1: 1.25

---

ASSAY EXPLANATION: Tissue distribution after i.g. or i.v. linezolid in control, CCl4-induced and 5/6 Nx rats
Type: in vivo, rat
MEASUREMENT SETUP: rat, brain, iv, 25 mg/kg, i.v. 25 mg/kg linezolid; 1 h; CCl4-induced rats; read-out: Tissue/plasma concentration ratio, Brain
QUANTITY: Kp at 1 h

• CC(=O)NC[C@H]1CN(c2ccc(N3CCOCC3)c(F)c2)C(=O)O1 [Linezolid] = 0.12

---

ASSAY EXPLANATION: Tissue distribution after i.g. or i.v. linezolid in control, CCl4-induced and 5/6 Nx rats
Type: in vivo, rat
MEASUREMENT SETUP: rat, heart, oral, 63 mg/kg, i.g. 63 mg/kg linezolid; 0.5 h; control rats; read-out: Tissue/plasma concentration ratio, Heart
Method: These two groups were further divided into the following three subgroups (n = 4): control rats, CCl4-induced rats, and 5/6 Nx rats. […] The rats were euthanized immediately after blood sampling. The brain, heart, lungs, liver, kidneys, and small intestine were collected. […] Then, 5 µL of the supernatant was analyzed.
QUANTITY: Kp at 0.5 h

* CC(=O)NC[C@H]1CN(c2ccc(N3CCOCC3)c(F)c2)C(=O)O1 | 0.68

---

ASSAY EXPLANATION: Tissue distribution after i.g. or i.v. linezolid in control, CCl4-induced and 5/6 Nx rats
Assay type: in vivo, rat
MEASUREMENT SETUP: rat, lung, iv, 25 mg/kg, i.v. 25 mg/kg linezolid; 0.5 h; CCl4-induced rats; read-out: Tissue/plasma concentration ratio, Lung
QUANTITY: Kp at 0.5 h

* CC(=O)NC[C@H]1CN(c2ccc(N3CCOCC3)c(F)c2)C(=O)O1 | 0.55

---

ASSAY EXPLANATION: Tissue distribution after i.g. or i.v. linezolid in control, CCl4-induced and 5/6 Nx rats
Type: in vivo, rat
MEASUREMENT SETUP: rat, heart, oral, 63 mg/kg, i.g. 63 mg/kg linezolid; 1 h; 5/6 Nx rats; read-out: Tissue/plasma concentration ratio, Heart
QUANTITY: Kp at 1 h

• CC(=O)NC[C@H]1CN(c2ccc(N3CCOCC3)c(F)c2)C(=O)O1 = 0.88

---

ASSAY EXPLANATION: Tissue distribution after i.g. or i.v. linezolid in control, CCl4-induced and 5/6 Nx rats
Type: in vivo, rat
MEASUREMENT SETUP: rat, liver (homogenate) relative to plasma, iv, 25 mg/kg, i.v. 25 mg/kg linezolid; 0.5 h; CCl4-induced rats; read-out: Tissue/plasma concentration ratio, Liver
QUANTITY: Kp at 0.5 h

• CC(=O)NC[C@H]1CN(c2ccc(N3CCOCC3)c(F)c2)C(=O)O1 = 1.32
